IC50 values by entry
Target: T1, human GIP receptor (human, UniProt P48546 22-466)
T1 construct: whole, on cells; Transiently transfected COS-7 cells expressing the human GIP receptor; also called hGIPR
T1 sequence (looked up): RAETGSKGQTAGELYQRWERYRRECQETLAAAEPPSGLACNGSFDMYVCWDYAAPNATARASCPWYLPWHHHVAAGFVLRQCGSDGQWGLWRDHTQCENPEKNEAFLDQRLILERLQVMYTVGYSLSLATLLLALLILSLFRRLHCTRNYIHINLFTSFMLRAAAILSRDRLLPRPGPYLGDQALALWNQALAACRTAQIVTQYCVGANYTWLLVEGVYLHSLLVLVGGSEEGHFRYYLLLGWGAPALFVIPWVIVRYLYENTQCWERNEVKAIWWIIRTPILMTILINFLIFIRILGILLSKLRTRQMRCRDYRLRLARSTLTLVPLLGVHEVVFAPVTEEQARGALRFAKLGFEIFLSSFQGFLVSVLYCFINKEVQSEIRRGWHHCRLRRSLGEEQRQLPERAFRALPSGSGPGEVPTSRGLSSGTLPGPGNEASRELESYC
Assay: 125I-hGIP(1-42) competition binding, COS-7 cells expressing human GIPR
Ends that are not written are not given here. * marks the point of attachment. Stearoyl = CCCCCCCCCCCCCCCCCC(=O)*; Myristoyl = CCCCCCCCCCCCCC(=O)*; Lauroyl = CCCCCCCCCCCC(=O)*
Answer in nM, number only, no unit symbol.

Use the examples below as a reference point.
>>> recorded_value("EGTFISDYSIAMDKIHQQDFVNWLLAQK (pyroglutamic acid (pGlu) in place of Glu at position 3 in GIP numbering (residue 1 of the entry); C16 (palmitoyl) fatty acid on Lys at position 16 (residue 14 of the entry); C-terminal amide taken from the series hGIP(3-30)NH2) [AT109 (E3pGlu, C16 at position 16)]")
1580
>>> recorded_value("EGTFISDYSIAMDK(Lauroyl)IHQQDFVNWLLAQK-NH2 [AT102 [hGIP(3-30)NH2-C12/16]]")
59.1
>>> recorded_value("Lauroyl-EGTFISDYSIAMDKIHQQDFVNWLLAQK-NH2 [AT101 [hGIP(3-30)NH2-C12/3]]")
9.9

Entry under review: Stearoyl-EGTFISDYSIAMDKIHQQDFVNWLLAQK-NH2 [AT113 [hGIP(3-30)NH2-C18/3]] . Reported IC50? 41400

So what does the record say about IC50 for Myristoyl-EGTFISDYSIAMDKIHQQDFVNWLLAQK-NH2 [AT110 [hGIP(3-30)NH2-C14/3]] ? 55
